Reference source for all entries: patent US20220002432A1

target: T1, CD38 on the surface of Daudi cells (human, UniProt P28907 1-300); assay: flow cytometry, Daudi cells;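 further: purified antibodies incubated with Daudi cells for 1 h at 4 °C, bound antibody detected by fluorescent secondary antibody and read by flow cytometry as MFI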
T1 construct: whole, on cells
Measured quantity: pEC50
Would you please state pEC50, meaning minus log10 of the concentration in mol/L, as a bare number?

Here's what some known entries look like.
* 22H6 (antibody, human IgG1, kappa, V domains shown, Rabbit-human chimeric anti-CD38: rabbit VH and VL on human IgG1 and kappa constant regions) VH: QSVEESGGRLVTPGTPLTLTCTVSGFSLSNNAISWVRQAPGKGLQWIGSIYGSGNTYYATWAKGRFTVSKTSTTVDLKINSPTTEDTATYFCAREGAGSSWGFNLWGPGTLVTVSS VL: AQVLTQTASSVSAAVGGTVTISCQSSESVYKNNYLSWYQQKPGQPLKCLIYSASTLASGVPSRFKGSGSGTQFTLTISDLESDDAATYYCAGGYSGNINGFGGGTEVVVKR | 8.88
* 25E4 (antibody, human IgG1, kappa, V domains shown, Rabbit-human chimeric anti-CD38: rabbit VH and VL on human IgG1 and kappa constant regions) VH: QSLEESGGRLVTPGTPLTLTCTVSGIDLSIYTMAWVRQAPGKGLEYIGIISGYGTTYYATWAKGRFIVSKTSTTVDLKITSPTTEDTATYFCVRTTVQSTDLWGPGTLVTVSS VL: DIVMTQTPASVEAAVGGTVTINCQASQNIYSNLAWYQQKPGQRPKLLIYKASTLASGVSSRFKGSGSGTEFTLTISDLASADAATYYCQSYYGATSSSFGYGFGGGTEVVVKR | 9.30
* 23D1 (antibody, human IgG1, kappa, V domains shown, Rabbit-human chimeric anti-CD38: rabbit VH and VL on human IgG1 and kappa constant regions) VH: QELVESGGGLFQPGGSLALTCKASGFSLSNIYVMCWVRQAPGKGLEWIACIGTGSGDTDYATWAKGRFTISKTSSTTVTLQMTSLTAADTATYFCARDPGAGTWNLWGPGTLVTVSS VL: DIVMTQTPSSVEAAVGGTVTIKCQASQTIGSRLAWYQQKPGQPPKLLIYSASTLASGVSSRFKGSGSGTQFTLTISDLDSADAATYYCQSYYYTSTSYPNAFGGGTEVVVKR | 9.15

Attention now shifts to the item below.
Task: Which pEC50 value is on record for 21G2 (antibody, human IgG1, kappa, V domains shown, Rabbit-human chimeric anti-CD38: rabbit VH and VL on human IgG1 and kappa constant regions) VH: QSVEESGGRLVTPGTPLTLTCTVSGFSLSNYGVSWVRQAPGKGLEWIGYILTSGGTYYANWAQGRFTISKTSTTVDLKITSPTTEDTATYFCGRPKDSDSSAFVSLWGPGTLVTVSS VL: DVVMTQTPASVSEPVGGTVTINCQASESIYSNLAWYQQKPGQPPKLLIYKASTLASGVSSRFKGSGSGTEFTLTISDLESADAATYYCQANHMIVIYGNGFGGGTEVVVKR ?
Output: 8.95
